Entry source: ChEMBL document CHEMBL2331117

- studySystem: Phosphatidylinositol 4,5-bisphosphate 3-kinase catalytic subunit alpha isoform (Homo sapiens)
- Sequence (P42336 whole entry, canonical isoform): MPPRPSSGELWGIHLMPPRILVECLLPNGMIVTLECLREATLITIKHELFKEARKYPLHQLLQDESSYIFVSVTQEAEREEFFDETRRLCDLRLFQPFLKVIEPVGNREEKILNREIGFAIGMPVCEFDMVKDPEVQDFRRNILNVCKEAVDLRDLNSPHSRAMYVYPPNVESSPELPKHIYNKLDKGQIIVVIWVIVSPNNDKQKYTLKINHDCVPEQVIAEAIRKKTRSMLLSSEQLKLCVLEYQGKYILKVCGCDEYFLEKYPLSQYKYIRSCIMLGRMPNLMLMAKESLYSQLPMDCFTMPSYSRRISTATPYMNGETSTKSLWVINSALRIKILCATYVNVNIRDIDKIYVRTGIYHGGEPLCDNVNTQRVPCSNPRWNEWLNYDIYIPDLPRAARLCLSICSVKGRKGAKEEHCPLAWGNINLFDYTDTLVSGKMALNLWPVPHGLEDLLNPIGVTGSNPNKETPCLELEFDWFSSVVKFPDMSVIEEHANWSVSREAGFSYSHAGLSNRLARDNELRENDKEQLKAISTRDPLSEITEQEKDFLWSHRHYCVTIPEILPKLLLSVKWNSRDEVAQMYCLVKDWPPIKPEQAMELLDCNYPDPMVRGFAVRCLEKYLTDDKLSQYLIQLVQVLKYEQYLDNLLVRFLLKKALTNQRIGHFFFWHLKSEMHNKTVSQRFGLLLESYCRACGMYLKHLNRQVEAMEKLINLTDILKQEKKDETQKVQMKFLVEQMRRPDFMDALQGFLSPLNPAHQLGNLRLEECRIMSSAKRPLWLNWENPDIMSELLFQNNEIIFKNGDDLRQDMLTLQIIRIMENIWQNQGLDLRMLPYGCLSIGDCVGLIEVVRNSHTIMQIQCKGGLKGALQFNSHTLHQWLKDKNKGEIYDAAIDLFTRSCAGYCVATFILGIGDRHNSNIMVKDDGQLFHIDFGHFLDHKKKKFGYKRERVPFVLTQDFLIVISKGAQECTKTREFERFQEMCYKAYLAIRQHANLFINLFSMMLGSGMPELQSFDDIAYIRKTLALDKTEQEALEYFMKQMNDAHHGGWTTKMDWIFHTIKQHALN
- assay: Inhibition of PI3Kalpha (unknown origin) using PIP2 as substrate after 2 hrs by luminescence assay
reportedMetric: IC50 (nM)

# example entries with known answers
[
  {
    "structureString": "O=C(c1ccc(C(F)(F)F)cc1)N1CCOc2ccc(-c3ccc4nc[nH]c4c3)cc2C1",
    "IC50 (nM)": 1090
  },
  {
    "structureString": "CNS(=O)(=O)c1ccc(C(=O)N2CCOc3ccc(-c4ccc5nc[nH]c5c4)cc3C2)cc1",
    "IC50 (nM)": 1090
  },
  {
    "structureString": "O=C(c1ccc(C(=O)C(F)(F)F)cc1)N1CCOc2ccc(-c3ccccc3)cc2C1",
    "IC50 (nM)": 2310
  },
  {
    "structureString": "CS(=O)(=O)c1ccc(C(=O)N2CCOc3ccc(-c4ccc5nc[nH]c5c4)cc3C2)c(Cl)c1",
    "IC50 (nM)": 705
  },
  {
    "structureString": "NS(=O)(=O)c1ccc(C(=O)N2CCOc3ccc(-c4ccc5nc[nH]c5c4)cc3C2)cc1",
    "IC50 (nM)": 763
  }
]

[I] CS(=O)(=O)c1ccc(C(=O)N2CCOc3ccc(-c4ccc(N)nc4)cc3C2)cc1
[II] O=C(c1ccc(C(=O)C(F)(F)F)cc1)N1CCOc2ccc(-c3cccnc3)cc2C1
Short answer wanted: higher IC50, I or II ? Choose, then provide that item's label. I
(I: 2900 nM, II: 1130 nM)

[A] O=C(c1ccc(C(=O)C(F)(F)F)cc1)N1CCOc2ccc(-c3ccc4ccccc4c3)cc2C1
[B] CS(=O)(=O)c1ccc(C(=O)N2CCOc3ccc(-c4ccc5nc[nH]c5c4)cc3C2)c(Br)c1
[C] CCS(=O)(=O)c1ccc(C(=O)N2CCOc3ccc(-c4ccc5nc[nH]c5c4)cc3C2)cc1
[D] Cc1nc2ccc(-c3ccc4c(c3)CN(C(=O)c3ccc(C(=O)C(F)(F)F)cc3)CCO4)cc2[nH]1
List these items ordered by IC50, big to small. Answer format: the labels, ordered as requested. C, A, B, D
